- experimental_target: T1, Full-length human TIGIT on CHO-K1 cells (CHO-K1 human TIGIT) (human, UniProt Q495A1 22-244)
- T1 construct: NCBI XP_024309156.1; the entry includes the signal peptide (limits not recoverable); The strain (high, medium, low) is named under assay; also called high expression strain 1D2; medium expression strain 2D10
- T1 sequence: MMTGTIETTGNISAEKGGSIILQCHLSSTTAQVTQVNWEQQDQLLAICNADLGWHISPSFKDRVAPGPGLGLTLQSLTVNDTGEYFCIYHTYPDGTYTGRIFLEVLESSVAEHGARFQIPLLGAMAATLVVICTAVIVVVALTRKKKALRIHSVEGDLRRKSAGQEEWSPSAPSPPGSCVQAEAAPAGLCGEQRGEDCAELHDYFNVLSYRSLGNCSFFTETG
- measurement_notes: cell binding, CHO-K1 human TIGIT high expression strain
reported_endpoint: pEC50
Numbers only, as −log10 of the molar value.

Below are worked cases with known answers.
TIGIT-070-H1L1 (antibody, V domains shown, Humanized anti-TIGIT antibody) VH: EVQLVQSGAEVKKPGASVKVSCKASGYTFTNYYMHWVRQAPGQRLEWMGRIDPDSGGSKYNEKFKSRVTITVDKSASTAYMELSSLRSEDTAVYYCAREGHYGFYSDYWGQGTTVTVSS VL: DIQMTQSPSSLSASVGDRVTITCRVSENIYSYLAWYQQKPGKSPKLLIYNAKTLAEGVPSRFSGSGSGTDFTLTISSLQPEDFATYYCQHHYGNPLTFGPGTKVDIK    10.59
TIGIT-002-H3L3 (antibody, V domains shown, Humanized anti-TIGIT antibody) VH: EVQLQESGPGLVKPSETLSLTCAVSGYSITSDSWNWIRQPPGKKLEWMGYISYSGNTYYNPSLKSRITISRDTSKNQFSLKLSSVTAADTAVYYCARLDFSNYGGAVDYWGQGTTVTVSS VL: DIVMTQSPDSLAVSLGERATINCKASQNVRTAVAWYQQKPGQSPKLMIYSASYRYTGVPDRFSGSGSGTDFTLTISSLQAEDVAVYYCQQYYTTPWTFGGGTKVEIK    10.44

Please look up its pEC50: TIGIT-005-H2L1b (antibody, V domains shown, Humanized anti-TIGIT antibody with NG-site mutation in VL) VH: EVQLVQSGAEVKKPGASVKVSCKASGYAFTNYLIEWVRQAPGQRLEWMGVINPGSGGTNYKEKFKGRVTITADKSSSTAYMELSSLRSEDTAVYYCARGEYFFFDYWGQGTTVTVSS VL: DIVMTQSPDSLAVSLGERATINCKASQHVSTGVAWYQHKPGQSPKLLIYSASYRYTGVPDRFSGSGSGTDFTLTISSLQAEDVAVYYCQQHYNTPHTFGGGTKVEIK
10.55

Data origin: patent US20240343803A1
